# reported pKi; entries follow
molecular target: GABA-A receptor; alpha-6/beta-3/gamma-2 (Homo sapiens, UniProt P18507+P28472+Q16445); assay: Displacement of [3H]flunitrazepam from human recombinant GABAA alpha-6-beta-3-gamma-2 receptor expressed in HEK cells by liquid scintillation counting
Sequence (P18507 whole entry): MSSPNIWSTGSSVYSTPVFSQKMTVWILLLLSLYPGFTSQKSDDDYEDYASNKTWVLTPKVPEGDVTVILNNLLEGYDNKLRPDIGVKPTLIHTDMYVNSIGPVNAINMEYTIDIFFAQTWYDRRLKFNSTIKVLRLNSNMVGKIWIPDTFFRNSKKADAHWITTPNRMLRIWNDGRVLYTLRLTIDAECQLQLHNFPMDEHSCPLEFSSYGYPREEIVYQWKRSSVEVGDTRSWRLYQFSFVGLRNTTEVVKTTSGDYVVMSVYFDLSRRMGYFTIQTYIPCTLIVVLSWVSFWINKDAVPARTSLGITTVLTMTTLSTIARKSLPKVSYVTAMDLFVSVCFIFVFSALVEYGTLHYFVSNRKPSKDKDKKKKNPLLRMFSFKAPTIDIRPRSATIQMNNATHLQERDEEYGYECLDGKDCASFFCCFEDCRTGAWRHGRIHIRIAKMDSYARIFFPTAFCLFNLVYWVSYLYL
Sequence (P28472 whole entry): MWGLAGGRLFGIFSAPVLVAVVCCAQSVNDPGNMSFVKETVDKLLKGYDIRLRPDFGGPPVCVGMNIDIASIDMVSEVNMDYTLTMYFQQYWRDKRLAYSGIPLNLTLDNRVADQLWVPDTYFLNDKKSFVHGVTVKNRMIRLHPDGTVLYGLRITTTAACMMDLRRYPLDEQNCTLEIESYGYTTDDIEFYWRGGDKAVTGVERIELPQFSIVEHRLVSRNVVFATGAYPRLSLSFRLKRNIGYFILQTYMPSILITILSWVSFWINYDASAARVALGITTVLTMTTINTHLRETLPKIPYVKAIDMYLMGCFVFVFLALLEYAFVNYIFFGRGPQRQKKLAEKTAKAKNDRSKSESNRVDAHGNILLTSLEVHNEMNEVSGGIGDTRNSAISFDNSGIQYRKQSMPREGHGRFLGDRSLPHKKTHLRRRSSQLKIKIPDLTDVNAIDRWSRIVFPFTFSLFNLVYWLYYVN
Sequence (Q16445 whole entry): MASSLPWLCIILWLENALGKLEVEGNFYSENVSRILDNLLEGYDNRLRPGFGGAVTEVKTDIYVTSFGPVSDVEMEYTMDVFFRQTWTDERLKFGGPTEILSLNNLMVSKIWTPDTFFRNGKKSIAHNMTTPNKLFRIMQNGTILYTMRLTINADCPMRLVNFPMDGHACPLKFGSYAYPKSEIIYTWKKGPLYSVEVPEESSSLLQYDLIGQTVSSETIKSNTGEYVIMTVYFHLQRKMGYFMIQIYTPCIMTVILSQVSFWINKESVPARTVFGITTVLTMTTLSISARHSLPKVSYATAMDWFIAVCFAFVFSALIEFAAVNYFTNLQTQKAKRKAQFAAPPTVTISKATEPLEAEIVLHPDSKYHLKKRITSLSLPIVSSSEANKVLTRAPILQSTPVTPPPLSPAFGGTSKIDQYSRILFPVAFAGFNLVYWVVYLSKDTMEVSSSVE
pKi: −log10 of the molar value.

The cases that follow already have their pKi on record.
>>> df
                                   molecule  endpoint_label  assay_result
0  C[C@H](OC(=O)c1cc2c(cn1)[nH]c1ccccc12)C(F)(F)F             pKi        < 5.70
1             CCCCOc1cc2c(cn1)[nH]c1ccccc12             pKi          6.00
2  C[C@@H](OC(=O)c1cc2c(cn1)[nH]c1ccccc12)C(F)(F)F             pKi        < 5.70

Proceeding to the next molecule to report its pKi.
Request: Need pKi, item CC(C)(C)OC(=O)c1cc2c(cn1)[nH]c1ccc(I)cc12
Response: < 5.40
